- target-entity: T1, murine BACE1 ECD
- T1 construct: analyte of the Octet assay (200 nM) and enzyme of the first short substrate assay
- T1 sequence (single chain, as listed by the source limits assumed): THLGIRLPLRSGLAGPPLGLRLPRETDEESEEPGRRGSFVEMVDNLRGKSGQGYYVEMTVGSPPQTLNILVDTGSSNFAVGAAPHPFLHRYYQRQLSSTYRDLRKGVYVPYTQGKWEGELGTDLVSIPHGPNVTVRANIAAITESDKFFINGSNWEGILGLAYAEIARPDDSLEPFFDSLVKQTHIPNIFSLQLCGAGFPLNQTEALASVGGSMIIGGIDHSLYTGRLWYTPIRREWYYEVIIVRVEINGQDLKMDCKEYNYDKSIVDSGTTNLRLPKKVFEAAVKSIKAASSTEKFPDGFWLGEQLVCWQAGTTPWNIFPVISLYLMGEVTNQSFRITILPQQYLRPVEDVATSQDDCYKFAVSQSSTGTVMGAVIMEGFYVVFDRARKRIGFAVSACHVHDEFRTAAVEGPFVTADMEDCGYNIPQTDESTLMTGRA
- method-notes: Octet, pH 5.0;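 further: antibodies captured on anti-human capture sensor tips, dissociation monitored in PBS with BSA buffer, kinetics fitted with a one-to-one binding model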
The entries below come with measured Kd values attached.
Please give a number only; it is taken to be in nM.

- 5896 (antibody, V domains shown, anti-BACE1 IgG) VH: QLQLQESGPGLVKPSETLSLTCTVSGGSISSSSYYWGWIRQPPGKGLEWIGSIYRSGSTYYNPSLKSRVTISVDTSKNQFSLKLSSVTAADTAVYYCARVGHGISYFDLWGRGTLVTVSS VL: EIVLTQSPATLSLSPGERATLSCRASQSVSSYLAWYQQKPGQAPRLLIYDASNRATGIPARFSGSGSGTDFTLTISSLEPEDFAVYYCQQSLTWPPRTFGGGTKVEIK: 3.1

Now look at this entry.
Kd lookup needed for 5985 (antibody, V domains shown, anti-BACE1 IgG) VH: QLQLQESGPGLVKPSETLSLTCTVSGGSISSSSYYWGWIRQPPGKGLEWIGNIYYSGSTYYNPSLKSRVTISVDTSKNQFSLKLSSVTAADTAVYYCARLGHGYNYFDLWGRGTLVTVSS VL: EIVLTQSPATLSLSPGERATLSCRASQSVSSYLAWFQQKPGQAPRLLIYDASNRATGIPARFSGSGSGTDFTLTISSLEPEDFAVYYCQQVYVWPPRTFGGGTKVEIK , thanks. 0.81
